# Test system: human hepatocytes
# PROCEDURE_SUMMARY: Human Hepatocyte Stability Assay
# Type: in vitro ADME
# CONDITION_CONTEXT: comparison table with known compounds; head prints "(units)", L/hr/kg from the method
# Method: The human […] stability of the compounds as predicted hepatocyte clearance in L/hr/kg was assessed. […] The loss of parent compound was determined using LC-MS methods against a standard curve.
Measured Hheps CL accompanies every entry in the list below.

COMPOUND	Hheps CL
Cc1c(-c2cncc(N)n2)nc(Nc2ccc(N3CCN(C4COC4)CC3)cc2)c2nccn12	1.3 mL/min/kg
Nc1cncc(-c2cn3ccnc3c(Nc3ccc(N4CCN(CC(CO)CO)CC4)cc3)n2)n1	1.3 mL/min/kg
Cc1ncc(-c2cn3ccnc3c(Nc3ccc(N4CCN(C5COC5)CC4)cc3)n2)nc1N	2 mL/min/kg
Nc1cncc(-c2cn3ccnc3c(Nc3ccc(N4CCOCC4)cc3)n2)c1 [reference compound]	11.3 mL/min/kg
COc1ccc(Nc2nc(-c3ccc(N)nc3)cn3ccnc23)cc1OC [reference compound]	15 mL/min/kg
COc1ccc(Nc2nc(-c3cccc(N)c3)cn3ccnc23)cc1OC [reference compound]	4 mL/min/kg
Nc1cncc(-c2cn3ccnc3c(Nc3ccc(N4CCN(C5COC5)CC4)c(OCCO)c3)n2)n1	1.2 mL/min/kg
Cc1ncc(-c2cn3ccnc3c(Nc3ccc(N4CCN(C5COC5)CC4)c(OCCO)c3)n2)nc1N	0.83 mL/min/kg
